# Experimental System: human ether-a-go-go-related-gene (hERG)-encoded potassium channel (Homo sapiens)
# Construct: expressed in transfected cells; host or cells: Human embryonic kidney (HEK) cells, grown under Geneticin G418 selection
# Sequence (Q12809 whole entry): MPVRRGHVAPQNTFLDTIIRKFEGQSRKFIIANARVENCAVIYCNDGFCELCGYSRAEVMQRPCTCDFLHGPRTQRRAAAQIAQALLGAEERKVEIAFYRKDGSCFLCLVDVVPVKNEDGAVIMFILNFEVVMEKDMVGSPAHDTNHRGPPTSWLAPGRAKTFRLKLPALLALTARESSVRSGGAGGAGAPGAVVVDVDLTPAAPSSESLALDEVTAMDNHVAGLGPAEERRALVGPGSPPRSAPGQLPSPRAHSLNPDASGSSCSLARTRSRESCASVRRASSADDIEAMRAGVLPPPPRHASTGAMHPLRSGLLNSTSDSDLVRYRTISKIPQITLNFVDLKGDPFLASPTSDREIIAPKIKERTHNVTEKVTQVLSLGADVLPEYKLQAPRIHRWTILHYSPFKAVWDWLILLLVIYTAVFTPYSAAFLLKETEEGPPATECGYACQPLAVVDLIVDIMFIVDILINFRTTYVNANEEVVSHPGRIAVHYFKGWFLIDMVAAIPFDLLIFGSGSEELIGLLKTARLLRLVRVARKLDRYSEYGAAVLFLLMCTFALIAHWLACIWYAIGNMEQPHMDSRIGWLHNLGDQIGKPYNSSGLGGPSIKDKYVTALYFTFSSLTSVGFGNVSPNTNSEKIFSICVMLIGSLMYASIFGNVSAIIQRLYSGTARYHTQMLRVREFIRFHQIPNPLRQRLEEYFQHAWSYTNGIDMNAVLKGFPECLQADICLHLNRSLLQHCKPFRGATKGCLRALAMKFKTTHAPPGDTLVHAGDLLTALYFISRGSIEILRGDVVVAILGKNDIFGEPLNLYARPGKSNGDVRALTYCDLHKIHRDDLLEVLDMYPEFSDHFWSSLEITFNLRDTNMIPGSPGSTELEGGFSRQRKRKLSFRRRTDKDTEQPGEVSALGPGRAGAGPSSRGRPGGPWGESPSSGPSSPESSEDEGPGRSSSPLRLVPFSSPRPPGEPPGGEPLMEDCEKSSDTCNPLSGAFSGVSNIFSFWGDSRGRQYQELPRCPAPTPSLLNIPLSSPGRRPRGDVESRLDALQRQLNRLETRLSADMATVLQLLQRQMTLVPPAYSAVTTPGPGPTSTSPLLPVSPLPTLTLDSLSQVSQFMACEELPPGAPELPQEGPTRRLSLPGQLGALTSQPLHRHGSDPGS
# Experiment Summary: hERG-encoded potassium channel inhibition test (whole-cell patch clamp, tail current)
# Assay type: cell-based
Readout Type: pIC50
Schema: pIC50 number; meaning minus log10 of the concentration expressed in molar units.

# input compound: CC(=O)Nc1ccc(O)cc1OC[C@@](C)(O)CNC1CCN(Cc2ccc(Cl)cc2)CC1 [Example 1, di(2,2,2-trifluoroacetate)] ; wanted: its pIC50
4.50

Origin of measurements: patent EP1499590B1
